- Target Under Test: Human plasma kallikrein (Homo sapiens)
- Construct: yields a heavy chain (371 amino acids) and a light chain (248 amino acids); The active site of plasma kallikrein is contained in the light chain
- Protocol: Plasma Kallikrein Assay
- Details: purified Human plasma kallikrein 0.5 nM, substrate Acetyl-K-P-R-AFC, HEPES pH 7.4; read-out: PKal IC50
Property: IC50 (nM)

compound=Nc1c(C(=O)N2CCC[C@@]3(C2)OC(=O)Nc2ccc(Cl)c(F)c23)cnn1-c1ccccc1C1CC1 property=IC50 unit_info=nM measured=10
compound=Nc1c(C(=O)N2CCC[C@@]3(C2)OC(=O)Nc2ccc(Cl)c(F)c23)cnn1-c1ccc(C(=O)O)cc1 property=IC50 unit_info=nM measured=8.4
compound=CC1(c2ccccc2-n2ncc(C(=O)N3CCC[C@@]4(C3)OC(=O)Nc3ccc(Cl)c(F)c34)c2N)CC1 property=IC50 unit_info=nM measured=8.4
compound=CCOC(=O)c1ccc(C)c(-n2ncc(C(=O)N3CCC[C@@]4(C3)OC(=O)Nc3ccc(Cl)c(F)c34)c2N)c1 property=IC50 unit_info=nM measured=13.4
compound=O=C1Nc2ccc(Cl)c(F)c2[C@@]2(CCCN(C(=O)c3cnn(Cc4ccc(F)cc4)c3O)C2)O1 property=IC50 unit_info=nM measured=17.8
compound=CC(=O)Nc1cccc(-n2ncc(C(=O)N3CCC[C@@]4(C3)OC(=O)Nc3ccc(Cl)c(F)c34)c2N)c1 property=IC50 unit_info=nM measured=36.6
compound="COCC(C)(n1ncc(C(=O)N2CCC[C@@]3(C2)OC(=O)Nc2ccc(Cl)c(F)c23)c1N)C(F)(F)F (single isomer, unassigned) [Example 128]" property=IC50 unit_info=nM measured=4.7

----------
- Target Under Test: Human plasma kallikrein (Homo sapiens, UniProt P03952)
- Construct: yields a heavy chain (371 amino acids) and a light chain (248 amino acids); The active site of plasma kallikrein is contained in the light chain
- Sequence (P03952 391-638 limits assumed): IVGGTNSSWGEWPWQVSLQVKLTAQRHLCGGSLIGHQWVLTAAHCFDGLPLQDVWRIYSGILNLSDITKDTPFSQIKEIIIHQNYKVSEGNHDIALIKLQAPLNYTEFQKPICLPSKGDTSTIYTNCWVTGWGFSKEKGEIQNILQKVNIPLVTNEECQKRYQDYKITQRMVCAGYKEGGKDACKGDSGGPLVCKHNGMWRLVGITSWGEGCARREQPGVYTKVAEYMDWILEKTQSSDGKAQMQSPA
- Sequence (P03952 20-390 partner limits assumed): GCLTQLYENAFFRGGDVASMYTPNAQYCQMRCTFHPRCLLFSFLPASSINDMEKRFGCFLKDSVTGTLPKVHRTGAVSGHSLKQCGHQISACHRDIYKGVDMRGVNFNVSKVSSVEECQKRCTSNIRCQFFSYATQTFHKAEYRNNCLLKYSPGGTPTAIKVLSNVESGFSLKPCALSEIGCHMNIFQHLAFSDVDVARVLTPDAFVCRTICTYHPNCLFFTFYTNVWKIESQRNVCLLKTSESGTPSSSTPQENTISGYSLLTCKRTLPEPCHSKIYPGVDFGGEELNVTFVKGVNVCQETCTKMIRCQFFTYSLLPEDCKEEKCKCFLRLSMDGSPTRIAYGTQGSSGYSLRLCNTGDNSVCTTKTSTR
- Protocol: Plasma Kallikrein Assay
- Details: purified Human plasma kallikrein 0.5 nM, substrate Acetyl-K-P-R-AFC, HEPES pH 7.4; read-out: PKal IC50
Below, each of the molecules is paired with its reported IC50 value.
Property: IC50

molecule=Nc1c(C(=O)N2CCC[C@@]3(C2)OC(=O)Nc2ccc(Cl)c(F)c23)cnn1-c1ccccc1OC1CC1 measured="1.6 nM"
molecule=Nc1c(C(=O)N2CCC[C@@]3(C2)OC(=O)Nc2ccc(Cl)c(F)c23)cnn1-c1ccccc1F measured="27.3 nM"
molecule=Cc1ccc(C)c(-n2ncc(C(=O)N3CCC[C@@]4(C3)OC(=O)Nc3ccc(Cl)c(F)c34)c2N)c1 measured="26.4 nM"
molecule="Nc1c(C(=O)N2CCC[C@@]3(C2)OC(=O)Nc2ccc(Cl)c(F)c23)cnn1C(c1ccccc1)C(F)(F)F (single isomer, unassigned) [Example 122]" measured="1 nM"
molecule=Nc1c(C(=O)N2CCC[C@@]3(C2)OC(=O)Nc2ccc(Cl)c(F)c23)cnn1CCOc1ccc(Cl)cc1 measured="10.5 nM"
molecule="CC(C1CC1)(n1ncc(C(=O)N2CCC[C@@]3(C2)OC(=O)Nc2ccc(Cl)c(F)c23)c1N)C(F)(F)F (single isomer, unassigned) [Example 126]" measured="2.2 nM"
molecule=Cc1ccc(-n2ncc(C(=O)N3CCC[C@@]4(C3)OC(=O)Nc3ccc(Cl)c(F)c34)c2N)c(C)c1 measured="46 nM"
